# kon per record follows
# measured.on: cynomolgus monkey EL (cynomolgus monkey)
# measurement.notes: Biacore; EL captured by anti-C2-tag Ab; bivalent fit
reported.property: kon (M⁻¹ s⁻¹)

- h53A11-S1 (antibody, V domains shown) VH: QVQLVQSGAEVKKPGASVKVSCKASGYTFTDYTMHWVRQAPGQRLEWMGGINPYYGGTTYNEKFKDRVTITRDTSASTAYMELSSLRSEDTAVYYCAKGDYYGGSYNYWGQGTTVTVSS VL: EIVMTQSLATLSVSPGERATLSCRASQDISNSLHWYQQKPGQAPRLLIKYASQSISGIPARFSGSGSGTEFTLTISSLQSEDFAVYYCQQSNSWPYTFGQGTKLEIK: 130000
- h23H8-S2 (antibody, V domains shown) VH: QVQLVQSGAEVKKPGASVKVSCKASGYTFTDNTIHWVRQAPGQGLEWMGHINPYYGGTNNNEKFKDRVTMTRDTSISTAYMELSRLRSDDTAVYYCARKGIYYSSPFDYWGQGTTVTVSS VL: DIQMTQSPSSLSASVGDRVTITCRASQDINNYLNWYQQKPGKAPKLLISYTSKLHSGVPSRFSGSGSGTDFTLTISSLQREDFATYYCQQGNTLPFTFGQGTKLEIK: 230000
- h23H8-S3 (antibody, V domains shown) VH: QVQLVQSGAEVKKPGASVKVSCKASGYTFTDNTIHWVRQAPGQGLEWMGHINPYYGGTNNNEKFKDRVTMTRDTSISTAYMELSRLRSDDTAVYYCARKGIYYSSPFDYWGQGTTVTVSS VL: DIQMTQSPSSLSASVGDRVTITCRASQDINNYLNWYQQKPGKAPKLLISYTSKLHSGVPSRFSGSGSGTDFTLTISSLQPEDFATYYCQQGNTLPFTFGQGTKLEIK: 370000
